# study system: UniProt:P12931
# Sequence (P12931 whole entry): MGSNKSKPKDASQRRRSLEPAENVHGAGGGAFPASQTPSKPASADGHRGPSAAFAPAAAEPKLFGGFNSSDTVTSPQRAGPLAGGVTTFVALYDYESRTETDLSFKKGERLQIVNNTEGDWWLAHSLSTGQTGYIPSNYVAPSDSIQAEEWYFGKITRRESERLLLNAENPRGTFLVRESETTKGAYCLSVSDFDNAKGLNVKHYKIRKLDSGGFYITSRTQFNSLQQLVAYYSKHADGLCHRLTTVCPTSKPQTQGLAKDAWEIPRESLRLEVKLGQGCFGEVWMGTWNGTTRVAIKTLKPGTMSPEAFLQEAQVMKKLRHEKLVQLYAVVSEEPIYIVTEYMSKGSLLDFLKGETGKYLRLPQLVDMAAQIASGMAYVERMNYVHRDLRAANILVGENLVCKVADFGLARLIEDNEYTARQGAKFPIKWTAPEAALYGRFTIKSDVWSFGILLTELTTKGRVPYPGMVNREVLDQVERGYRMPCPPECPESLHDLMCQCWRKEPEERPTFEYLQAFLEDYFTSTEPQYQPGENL
# experimental protocol: c-Src enzyme inhibition (FRET)
# Assay type: biochemical
# experimental parameters: Table 4a1
# Procedure: The enzyme inhibitory activities of compounds disclosed herein are determined by FRET using synthetic peptides labelled with both donor and acceptor fluorophores (Z-LYTE, Invitrogen Ltd., Paisley, UK). The relevant enzyme (3000 ng/mL or 2000 ng/mL respectively, 2.5 μL) is incubated with the test compound (either 4 μg/mL, 0.4 μg/mL, 0.04 μg/mL, or 0.004 μg/mL, 2.5 μL each) for 2 hr at RT. […]
pIC50: −log10 of the molar value.
attribute measured: pIC50

Answered cases to consult:
COc1cc(Nc2nccc(Oc3ccc(NC(=O)Nc4cc(C(C)C)nn4-c4ccc(OC)nc4)c4ccccc34)n2)cc(C(=O)NCCN2CCOCC2)c1    8.70
COc1ccc(-n2nc(C(C)C)cc2NC(=O)Nc2ccc(Oc3ccnc(Nc4cc(OC)cc(C(=O)NCCN(C)C)c4)n3)c3ccccc23)cc1    8.70

P: CNC(=O)c1cccc(Nc2nccc(Oc3ccc(NC(=O)Nc4cc(C(C)(C)C)nn4-c4ccc(C)cc4)c4ccccc34)n2)c1
Q: COCCNC(=O)c1cc(Nc2nccc(Oc3ccc(NC(=O)Nc4cc(C(C)(C)C)nn4-c4ccc(C)cc4)c4ccccc34)n2)cc(OC)c1
Of the two listed items, P and Q , which carries the larger pIC50 figure? Mark your selection by writing its label.
Q
